Each recorded value in this set is attributed to patent US6455540B1.

- Tested on: Prevotella buccae-oris group
- assay protocol: Agar dilution MIC
- Assay type: cell-based
- condition summary: 22 isolates
reported metric: Minimal Inhibitory Concentration Range

| compound | reported metric | readout value |
| --- | --- | --- |
| CC[C@H]1OC(=O)[C@H](C)[C@@H](O[C@H]2C[C@@](C)(OC)[C@@H](O)[C@H](C)O2)[C@H](C)[C@@H](O[C@@H]2O[C@H](C)C[C@H](N(C)C)[C@H]2O)[C@](C)(OC)C[C@@H](C)C(=O)[C@H](C)[C@@H](O)[C@]1(C)O | Minimal Inhibitory Concentration Range | 0.06 to 1 µg/mL |
| Cc1ncc([N+](=O)[O-])n1CCO | Minimal Inhibitory Concentration Range | 0.5 to 4 µg/mL |
| N[C@@H]1[C@H]2CN(c3nc4c(cc3F)c(=O)c(C(=O)O)cn4-c3ccc(F)cc3F)C[C@@H]12 | Minimal Inhibitory Concentration Range | 0.25 to 4 µg/mL |
| CO/N=C1\CN(c2nc3c(cc2F)c(=O)c(C(=O)O)cn3C2CC2)CC1CN (racemic) | Minimal Inhibitory Concentration Range | 0.5 to 8 µg/mL |
| CC[C@H]1OC(=O)[C@H](C)[C@@H](O[C@H]2C[C@@](C)(OC)[C@@H](O)[C@H](C)O2)[C@H](C)[C@@H](O[C@@H]2O[C@H](C)C[C@H](N(C)C)[C@H]2O)[C@](C)(O)C[C@@H](C)C(=O)[C@H](C)[C@@H](O)[C@]1(C)O | Minimal Inhibitory Concentration Range | 0.5 to 8 µg/mL |

---

MIC50: recorded values
- Tested on: Fusobacterium russii

| compound | MIC50 |
| --- | --- |
| CC[C@H]1OC(=O)[C@H](C)[C@@H](O[C@H]2C[C@@](C)(OC)[C@@H](O)[C@H](C)O2)[C@H](C)[C@@H](O[C@@H]2O[C@H](C)C[C@H](N(C)C)[C@H]2O)[C@](C)(O)C[C@@H](C)CN(C)[C@H](C)[C@@H](O)[C@]1(C)O [Azithromycin] | 0.25 µg/mL |
| CO/N=C1\CN(c2nc3c(cc2F)c(=O)c(C(=O)O)cn3C2CC2)CC1CN (racemic) [Gemifloxacin] | > 8 µg/mL |
| CC[C@H]1OC(=O)[C@H](C)[C@@H](O[C@H]2C[C@@](C)(OC)[C@@H](O)[C@H](C)O2)[C@H](C)[C@@H](O[C@@H]2O[C@H](C)C[C@H](N(C)C)[C@H]2O)[C@](C)(OC)C[C@@H](C)C(=O)[C@H](C)[C@@H](O)[C@]1(C)O [Clarithromycin] | 4 µg/mL |
| N[C@@H]1[C@H]2CN(c3nc4c(cc3F)c(=O)c(C(=O)O)cn4-c3ccc(F)cc3F)C[C@@H]12 [Trovafloxacin] | 4 µg/mL |
| CC[C@H]1OC(=O)[C@H](C)[C@@H](O[C@H]2C[C@@](C)(OC)[C@@H](O)[C@H](C)O2)[C@H](C)[C@@H](O[C@@H]2O[C@H](C)C[C@H](N(C)C)[C@H]2O)[C@](C)(O)C[C@@H](C)C(=O)[C@H](C)[C@@H](O)[C@]1(C)O [Erythromycin] | 4 µg/mL |
| CCC[C@@H]1C[C@@H](C(=O)N[C@@H]([C@H]2O[C@H](SC)[C@H](O)[C@@H](O)[C@H]2O)[C@H](C)Cl)N(C)C1 [Clindamycin] | 0.03 µg/mL |

---

- Test system: Bacteroides gracilis
- assay protocol: Agar dilution MIC
- Format: cell-based, Bacteroides gracilis (Campylobacter gracilis)
- condition summary: Campylobacter gracilis, read-out: Minimal Inhibitory Concentration 50% (MIC50); 11 isolates
reported metric: MIC50 (µg/mL)

| cpd smiles | reported metric | unit of measurement | readout value |
| --- | --- | --- | --- |
| N[C@@H]1[C@H]2CN(c3nc4c(cc3F)c(=O)c(C(=O)O)cn4-c3ccc(F)cc3F)C[C@@H]12 | MIC50 | µg/mL | 0.03 |
| CCC[C@@H]1C[C@@H](C(=O)N[C@@H]([C@H]2O[C@H](SC)[C@H](O)[C@@H](O)[C@H]2O)[C@H](C)Cl)N(C)C1 | MIC50 | µg/mL | 0.25 |
| CC[C@H]1OC(=O)[C@H](C)[C@@H](O[C@H]2C[C@@](C)(OC)[C@@H](O)[C@H](C)O2)[C@H](C)[C@@H](O[C@@H]2O[C@H](C)C[C@H](N(C)C)[C@H]2O)[C@](C)(OC)C[C@@H](C)C(=O)[C@H](C)[C@@H](O)[C@]1(C)O | MIC50 | µg/mL | 1 |

---

- Test system: Bacteroides gracilis
- assay protocol: Agar dilution MIC
- Assay type: cell-based, Bacteroides gracilis (Campylobacter gracilis)
- condition summary: Campylobacter gracilis, 11 isolates; read-out: Minimal Inhibitory Concentration 90% (MIC90)

| molecule | target or system | MIC90 |
| --- | --- | --- |
| CC[C@H]1OC(=O)[C@H](C)[C@@H](O[C@H]2C[C@@](C)(OC)[C@@H](O)[C@H](C)O2)[C@H](C)[C@@H](O[C@@H]2O[C@H](C)C[C@H](N(C)C)[C@H]2O)[C@](C)(O)C[C@@H](C)CN(C)[C@H](C)[C@@H](O)[C@]1(C)O | Bacteroides gracilis | 0.5 µg/mL |
| CCC[C@@H]1C[C@@H](C(=O)N[C@@H]([C@H]2O[C@H](SC)[C@H](O)[C@@H](O)[C@H]2O)[C@H](C)Cl)N(C)C1 | Bacteroides gracilis | 2 µg/mL |
| N[C@@H]1[C@H]2CN(c3nc4c(cc3F)c(=O)c(C(=O)O)cn4-c3ccc(F)cc3F)C[C@@H]12 | Bacteroides gracilis | 0.5 µg/mL |
| CO/N=C1\CN(c2nc3c(cc2F)c(=O)c(C(=O)O)cn3C2CC2)CC1CN (racemic) | Bacteroides gracilis | ≤ 2 µg/mL |
| CC[C@H]1OC(=O)[C@H](C)[C@@H](O[C@H]2C[C@@](C)(OC)[C@@H](O)[C@H](C)O2)[C@H](C)[C@@H](O[C@@H]2O[C@H](C)C[C@H](N(C)C)[C@H]2O)[C@](C)(O)C[C@@H](C)C(=O)[C@H](C)[C@@H](O)[C@]1(C)O | Bacteroides gracilis | 2 µg/mL |
| CC[C@H]1OC(=O)[C@H](C)[C@@H](O[C@H]2C[C@@](C)(OC)[C@@H](O)[C@H](C)O2)[C@H](C)[C@@H](O[C@@H]2O[C@H](C)C[C@H](N(C)C)[C@H]2O)[C@](C)(OC)C[C@@H](C)C(=O)[C@H](C)[C@@H](O)[C@]1(C)O | Bacteroides gracilis | 1 µg/mL |
| Cc1ncc([N+](=O)[O-])n1CCO | Bacteroides gracilis | > 32 µg/mL |

---

Some compounds, each annotated with its measured MIC50.
- System: Clostridium inocuum
- assay protocol: Agar dilution MIC
- Format: cell-based, Clostridium innocuum
- condition summary: Clostridium, read-out: Minimal Inhibitory Concentration 50% (MIC50); 11 isolates
reported metric: MIC50

| cpd smiles | reported metric | readout value |
| --- | --- | --- |
| CC[C@H]1OC(=O)[C@H](C)[C@@H](O[C@H]2C[C@@](C)(OC)[C@@H](O)[C@H](C)O2)[C@H](C)[C@@H](O[C@@H]2O[C@H](C)C[C@H](N(C)C)[C@H]2O)[C@](C)(O)C[C@@H](C)CN(C)[C@H](C)[C@@H](O)[C@]1(C)O | MIC50 | > 32 µg/mL |
| CC[C@H]1OC(=O)[C@H](C)[C@@H](O[C@H]2C[C@@](C)(OC)[C@@H](O)[C@H](C)O2)[C@H](C)[C@@H](O[C@@H]2O[C@H](C)C[C@H](N(C)C)[C@H]2O)[C@](C)(O)C[C@@H](C)C(=O)[C@H](C)[C@@H](O)[C@]1(C)O | MIC50 | > 32 µg/mL |
| CC[C@H]1OC(=O)[C@H](C)[C@@H](O[C@H]2C[C@@](C)(OC)[C@@H](O)[C@H](C)O2)[C@H](C)[C@@H](O[C@@H]2O[C@H](C)C[C@H](N(C)C)[C@H]2O)[C@](C)(OC)C[C@@H](C)C(=O)[C@H](C)[C@@H](O)[C@]1(C)O | MIC50 | > 32 µg/mL |
